Entries and their measured bioavailability follow.
# Method Summary: PK profile in rats
# Assay type: in vivo, rat
# Measurement Context: rat, in vivo, oral

{"columns": ["Compound", "bioavailability [%]"],
 "data": [
  ["CCC(c1ccc(C(F)(F)F)cc1)(C(C)O)n1ncc2c(NS(C)(=O)=O)cc(F)cc21 (single isomer, unassigned)", 92],
  ["CCC(c1ccc(Br)cc1)(C(C)O)n1ncc2c(NS(C)(=O)=O)cccc21 (single isomer, unassigned)", 49],
  ["CCC(O)C(CC)(c1ccc(C(F)(F)F)cc1)n1ncc2c(NS(C)(=O)=O)cccc21 (single isomer, unassigned)", 76],
  ["CC(O)C(CC(F)F)(c1ccc(C(F)(F)F)cc1)n1ncc2c(NS(C)(=O)=O)cccc21 (single isomer, unassigned)", 98],
  ["CS(=O)(=O)Nc1cccc2c1cnn2C(CC(F)F)(C(N)=O)c1ccc(C(F)(F)F)cc1 (single isomer, unassigned)", 31],
  ["CCC(c1ccc(C(F)(F)F)cc1)(C(O)C(F)F)n1ncc2c(NS(C)(=O)=O)cccc21 (single isomer, unassigned)", 77]
]}

====

Collected half-life values appear next to each entry.
# Method Summary: Liver microsome stability, human
# Assay type: in vitro ADME
# Measurement Context: human, liver microsomes; read-out: Liver Microsome Stability (t1/2)
Property Label: half-life (h)

{"columns": ["Molecule", "Obs Value"],
 "data": [
  ["CC(O)C(CC(F)F)(c1ccc(C(F)(F)F)cc1)n1ncc2c(NS(C)(=O)=O)cccc21 (single isomer, unassigned)", 1.43],
  ["CS(=O)(=O)Nc1cccc2c1cnn2C(CC(F)F)(C(N)=O)c1ccc(C(F)(F)F)cc1 (single isomer, unassigned)", 2.3],
  ["CCC(c1ccc(C(F)(F)F)cc1)(C(C)O)n1ncc2c(NS(C)(=O)=O)cc(F)cc21 (single isomer, unassigned)", 2.6]
]}

====

Property: half-life; scope: individual molecules
# Method Summary: Liver microsome stability, dog
# Type: in vitro ADME
# Measurement Context: liver microsomes, read-out: Liver Microsome Stability (t1/2)
Property Label: half-life (h)

{"columns": ["Molecule", "Obs Value"],
 "data": [
  ["CCC(c1ccc(Br)cc1)(C(C)O)n1ncc2c(NS(C)(=O)=O)cccc21 (single isomer, unassigned) [Compound 2]", 1.12],
  ["CS(=O)(=O)Nc1cccc2c1cnn2C(CC(F)F)(C(N)=O)c1ccc(C(F)(F)F)cc1 (single isomer, unassigned) [Compound 46]", 2.25],
  ["CCC(c1ccc(C(F)(F)F)cc1)(C(O)C(F)F)n1ncc2c(NS(C)(=O)=O)cccc21 (single isomer, unassigned) [Compound 47]", 2.7],
  ["CCC(O)C(CC)(c1ccc(C(F)(F)F)cc1)n1ncc2c(NS(C)(=O)=O)cccc21 (single isomer, unassigned) [Compound 9]", 1.08],
  ["CC(O)C(CC(F)F)(c1ccc(C(F)(F)F)cc1)n1ncc2c(NS(C)(=O)=O)cccc21 (single isomer, unassigned) [Compound 37]", 0.967],
  ["CCC(c1ccc(C(F)(F)F)cc1)(C(C)O)n1ncc2c(NS(C)(=O)=O)cc(F)cc21 (single isomer, unassigned) [Compound 31]", 2.13]
]}

====

Listing of recorded pIC50 by entry.
# System Tested: full-length human Mineralocorticoid Receptor (MR) (Homo sapiens)
# Sequence (P08235 whole entry): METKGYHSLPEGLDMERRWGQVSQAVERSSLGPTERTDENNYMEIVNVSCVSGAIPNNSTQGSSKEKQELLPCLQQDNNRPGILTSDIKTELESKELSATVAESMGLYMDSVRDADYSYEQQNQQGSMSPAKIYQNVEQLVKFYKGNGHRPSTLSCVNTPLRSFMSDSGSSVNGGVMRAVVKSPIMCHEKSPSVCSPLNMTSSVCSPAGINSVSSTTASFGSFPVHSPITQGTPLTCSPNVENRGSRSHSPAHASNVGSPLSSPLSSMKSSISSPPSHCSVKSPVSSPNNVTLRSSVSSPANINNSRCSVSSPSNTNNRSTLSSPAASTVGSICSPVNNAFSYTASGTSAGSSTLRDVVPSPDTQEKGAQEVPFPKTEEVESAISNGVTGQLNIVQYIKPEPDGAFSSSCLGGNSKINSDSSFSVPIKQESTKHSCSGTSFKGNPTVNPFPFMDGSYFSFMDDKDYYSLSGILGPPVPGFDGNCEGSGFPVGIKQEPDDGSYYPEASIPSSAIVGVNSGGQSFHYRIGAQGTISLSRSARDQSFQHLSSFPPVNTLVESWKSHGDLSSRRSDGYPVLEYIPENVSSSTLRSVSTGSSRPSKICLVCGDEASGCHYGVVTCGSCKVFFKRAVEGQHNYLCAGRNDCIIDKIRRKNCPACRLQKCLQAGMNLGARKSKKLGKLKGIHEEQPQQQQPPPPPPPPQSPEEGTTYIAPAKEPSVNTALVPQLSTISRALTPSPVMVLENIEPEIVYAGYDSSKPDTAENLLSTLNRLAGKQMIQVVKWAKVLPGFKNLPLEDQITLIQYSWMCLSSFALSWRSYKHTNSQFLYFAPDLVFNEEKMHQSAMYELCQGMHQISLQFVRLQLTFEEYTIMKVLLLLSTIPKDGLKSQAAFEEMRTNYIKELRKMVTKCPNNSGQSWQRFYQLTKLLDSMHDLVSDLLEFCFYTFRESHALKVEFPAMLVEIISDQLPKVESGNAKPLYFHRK
# Method Summary: human MR NH Pro assay (PathHunter Protein:Protein interaction assay), MR antagonism
# Measurement Context: IP = inflection point of the dose-response curve; CHO-K1 cells overexpressing human MR, aldosterone about 0.3 nM to about 1 nM, 6 hours at 37° C.
pIC50: −log10 of the molar value.

{"columns": ["Compound", "pIC50"],
 "data": [
  ["CCC(c1ccc(C(F)(F)F)cc1)(C(C)O)n1ncc2c(NS(C)(=O)=O)cc(F)cc21 (single isomer, unassigned) [Compound 34]", 5.94],
  ["CCC(O)C(CC)(c1ccc(S(F)(F)(F)(F)F)cc1)n1ncc2c(NS(C)(=O)=O)cccc21 (single isomer, unassigned) [Compound 25]", 7.32],
  ["CCC(O)C(CC)(c1ccc(C#N)cc1)n1ncc2c(NS(C)(=O)=O)cc(F)cc21 (single isomer, unassigned) [Compound 19]", 6.87],
  ["CCC(CO)(c1ccc(C(F)(F)F)cc1)n1ncc2c(NS(C)(=O)=O)cccc21 (single isomer, unassigned)", 7.22],
  ["CCC(O)C(CC)(c1ccc(C#N)cc1)n1ncc2c(NS(C)(=O)=O)cccc21 (single isomer, unassigned) [Compound 16]", 7.32],
  ["CCC(O)C(CC)(c1ccc(Br)cc1)n1ncc2c(NS(C)(=O)=O)cccc21 (single isomer, unassigned) [Compound 6]", 8.52],
  ["CCC(c1ccc(Br)cc1)(C(C)O)n1ncc2c(NS(C)(=O)=O)cccc21 (single isomer, unassigned) [Compound 4]", 6.14],
  ["CCC(c1ccc(C(F)(F)F)cc1)(C(O)C(F)F)n1ncc2c(NS(C)(=O)=O)cccc21 (single isomer, unassigned) [Compound 47]", 7.96],
  ["CCC(c1ccc(Br)cc1)(C(C)O)n1ncc2c(NS(C)(=O)=O)cccc21 (single isomer, unassigned) [Compound 1]", 8.00],
  ["CCC(c1ccc(S(F)(F)(F)(F)F)cc1)(C(C)O)n1ncc2c(NS(C)(=O)=O)cccc21 (single isomer, unassigned) [Compound 24]", 6.82],
  ["CCC(O)C(CC(F)F)(c1ccc(C(F)(F)F)cc1)n1ncc2c(NS(=O)(=O)CC)cccc21 (single isomer, unassigned) [Compound 55]", 7.74],
  ["CCC(c1ccc(S(F)(F)(F)(F)F)cc1)(C(C)O)n1ncc2c(NS(C)(=O)=O)cccc21 (single isomer, unassigned) [Compound 21]", 6.48],
  ["CCC(O)C(CC(F)F)(c1ccc(C(F)(F)F)cc1)n1ncc2c(NS(C)(=O)=O)cccc21 (single isomer, unassigned) [Compound 39]", 7.64],
  ["CCC(c1ccc(C(F)(F)F)cc1)(C(C)O)n1ncc2c(NS(C)(=O)=O)cc(F)cc21 (single isomer, unassigned) [Compound 33]", 5.96],
  ["CC(O)C(CC(F)F)(c1ccc(C(F)(F)F)cc1)n1ncc2c(NS(C)(=O)=O)cccc21 (single isomer, unassigned) [Compound 36]", 7.02],
  ["CCC(C(N)=O)(c1ccc(S(F)(F)(F)(F)F)cc1)n1ncc2c(NS(C)(=O)=O)cccc21 (racemic)", 5.44],
  ["CCC(c1ccc(C(F)(F)F)cc1)(C(O)C(F)F)n1ncc2c(NS(=O)(=O)CC)cccc21 (single isomer, unassigned) [Compound 49]", 8.15],
  ["CCC(O)C(CC(F)F)(c1ccc(C(F)(F)F)cc1)n1ncc2c(NS(C)(=O)=O)cccc21 (single isomer, unassigned) [Compound 40]", 7.82],
  ["CC(O)C(CC(F)F)(c1ccc(C(F)(F)F)cc1)n1ncc2c(NS(C)(=O)=O)cccc21 (single isomer, unassigned) [Compound 37]", 7.18],
  ["CCS(=O)(=O)Nc1cccc2c1cnn2C(CC(F)F)(c1ccc(C(F)(F)F)cc1)C(C)O (single isomer, unassigned) [Compound 57]", 7.37],
  ["CCC(O)C(CC)(c1ccc(C(F)(F)F)cc1)n1ncc2c(NS(C)(=O)=O)cccc21 (single isomer, unassigned) [Compound 10]", 8.30],
  ["CCC(c1ccc(C(F)(F)F)cc1)(C(O)C(F)F)n1ncc2c(NS(C)(=O)=O)cc(F)cc21 (single isomer, unassigned) [Compound 52]", 7.55],
  ["CCC(c1ccc(Br)cc1)(C(C)O)n1ncc2c(NS(C)(=O)=O)cccc21 (single isomer, unassigned) [Compound 2]", 8.15]
]}

Data origin: patent US9511052B2
